# EXPERIMENTAL PROTOCOL: chemical genetic growth profiling, strain panel (AID 1159580);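 further: tested at 20 µM; growth read once vehicle control cultures reached saturation at 30 °C; 1 = growth at the plate median or of vehicle wells; lower values mean less growth of the strain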
# PROTOCOL CONDITIONS: S. cerevisiae deletion strains, growth OD, locus YPR135W, strain CTF4, stronger effect = lower value
Screen size: about 5,500 compounds; about 2,000 (36%) were called active. About 18% were inconclusive and are not listed. This is one part of the list.
Here the recorded normalized growth is given for each entry.
RESULT TYPE: normalized growth

# COMPOUND, MEASURED RESULT
records = [
    ("COc1ccccc1N1CCN(Cc2ccc(F)cc2)CC1", 1),
    ("CCOC(=O)CCc1cc(N=Cc2cc(Cl)cc(Cl)c2O)c(O)c(N=Cc2cc(Cl)cc(Cl)c2O)c1", 0.558),
    ("O=C(Nc1cc(C(F)(F)F)cc(C(F)(F)F)c1)C(Sc1ccccn1)c1ccccc1 (configuration not stated)", 0.959),
    ("CCOC(=O)c1c(C)csc1N", 1.02),
    ("CC(C)(O)C#Cc1ccc(/C=N\\O)cc1", 0.994),
    ("S=c1[nH]c2ccccc2[nH]1", 1.01),
    ("COC(=O)c1ccc(C(=O)OC)nc1", 0.967),
    ("O=C(Nc1ccc(Cl)cc1Cl)c1cnccn1", 0.768),
    ("CCC(=O)c1ccc(-c2ccccc2)cc1", 0.58),
    ("Cc1ccc(Cl)cc1NC(=S)NCCO", 1.11),
    ("O=C(O)CCNC(=S)Nc1cccc(C(F)(F)F)c1", 1.06),
    ("CC1(C)CCC(C(C)(C)O)CC1", 0.989),
    ("Cc1onc(-c2ccccc2Cl)c1C(=O)Nc1ccc(S(=O)(=O)Nc2nccs2)cc1", 0.932),
    ("COC(=O)c1ccc(S(=O)(=O)NCc2ccccc2)n1C", 1.15),
    ("BrC12CC3CC(CC(C3)C1)C2", 0.99),
    ("Cc1ccc(-n2nc(-c3ccc(OC(F)(F)F)cc3)cc2NC(=O)Nc2ccc(OC(F)(F)F)cc2)cc1C", 0.996),
    ("CC(C)c1nc2ccccc2[nH]1", 1.05),
]

----------
# EXPERIMENTAL PROTOCOL: chemical genetic growth profiling, strain panel (AID 1159580)
# PROTOCOL CONDITIONS: S. cerevisiae deletion strains, growth OD, locus YGL078C, strain dbp3, stronger effect = lower value
Hit rate of the full screen: of about 5,500 compounds, about 2,000 (36%) were called active. Another 18% or so got no clear call; they are omitted. This is one part of the list.
Here the recorded normalized growth is given for each entry.

# COMPOUND STRING, normalized growth
rows = [
    ("C/C=C/c1ccc(OC)cc1", 0.999),
    ("COP(=S)(OC)Oc1ccc(SC)c(C)c1", 0.981),
    ("CCn1cc(C(=O)O)c(=O)c2cnc(N3CCNCC3)nc21", 1),
    ("CCOP(=S)(OCC)SCSP(=S)(OCC)OCC", 0.984),
]

----------
# EXPERIMENTAL PROTOCOL: chemical genetic growth profiling, strain panel (AID 1159580)
# PROTOCOL CONDITIONS: S. cerevisiae deletion strains, growth OD, locus YGR135W, strain pre9, stronger effect = lower value
In all, about 5,500 compounds went through this assay and about 2,000 (36%) were called active. Inconclusive results (about 18%) are left out. The list shows a part of the results.

# COMPOUND, normalized growth
rows = [
    ("CCOP(=S)(OCC)SCCSCC", 0.982),
    ("Oc1ccc(/C=C/c2cc(O)cc(O)c2)cc1", 0.936),
    ("CC(=O)N[C@@H]1[C@@H](C(O)[C@H](O)CO)O[C@](O)(C(=O)O)C[C@@H]1O (stereo partly specified)", 1.01),
    ("CC1(C)CC2C1CCC1(C)OC2(C)CCC1O (stereo unspecified)", 1.08),
    ("COc1cc(/C=C/C(=O)O)cc(OC)c1OC", 1.02),
    ("CCOC(=O)C1=C[C@]2(CC)CCCN3CCc4c(n1c1ccccc41)[C@@H]32", 1),
]

----------
# EXPERIMENTAL PROTOCOL: chemical genetic growth profiling, strain panel (AID 1159580);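 further: tested at 20 µM; growth read once vehicle control cultures reached saturation at 30 °C; 1 = growth at the plate median or of vehicle wells; lower values mean less growth of the strain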
# PROTOCOL CONDITIONS: S. cerevisiae deletion strains, growth OD, locus YCL069W, strain vba3, stronger effect = lower value
The campaign covered roughly 5,500 compounds. About 2,000 (36%) were called active. Inconclusive results (about 18%) are left out. The list shows a part of the results.

# COMPOUND, normalized growth
rows = [
    ("CC12CCCC(O)(C1)C1CC(C)(C)C1CC2 (stereo unspecified)", 0.998),
    ("CCOC(N)=O", 0.997),
    ("CCOC(=O)C(C)(N)Cc1ccc(O)c(O)c1 (stereo unspecified)", 0.989),
    ("O=c1cccc2n1C[C@H]1CNCC2C1", 1),
    ("C=CC1=C(C)/C(=C/c2[nH]c(Cc3[nH]c(/C=C4\\NC(=O)C(C)=C4C=C)c(C)c3CCC(=O)O)c(CCC(=O)O)c2C)NC1=O", 0.986),
    ("COc1ccc(C=CC(=O)c2ccc(O)cc2O)cc1OC", 0.975),
    ("CC(Cc1ccc(O)c(O)c1)(NN)C(=O)O (stereo unspecified)", 1),
    ("COS(C)(=O)=O", 1),
    ("Nc1nccs1", 0.988),
    ("C[C@](N)(Cc1ccc(O)c(O)c1)C(=O)O", 0.982),
    ("CC(=O)O[C@H]1C[C@@H](OC(C)=O)C(C)(C)C2C[C@@H](OC(C)=O)[C@]3(C)C(CC[C@@]4(C)[C@H](c5ccoc5)C(=O)[C@H]5O[C@]543)[C@]21C (stereo partly specified)", 1),
]

----------
# EXPERIMENTAL PROTOCOL: chemical genetic growth profiling, strain panel (AID 1159580);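 further: tested at 20 µM; growth read once vehicle control cultures reached saturation at 30 °C; 1 = growth at the plate median or of vehicle wells; lower values mean less growth of the strain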
# PROTOCOL CONDITIONS: S. cerevisiae deletion strains, growth OD, locus YOR231W, strain MKK1
About 2,000 (36%) of roughly 5,500 compounds were called active. Another 18% or so got no clear call; they are omitted. Cut-off read from the data, not from the text of the source: active = normalized growth mostly below about 0.91 (no sharp cut-off); inconclusive = no clear call, values can overlap the other calls; inactive = mostly above about 0.92. The list shows a part of the results.
Classes used: 1 for active, 0 for inactive

# MOLECULE, ASSIGNED LABEL
records = [
    ("CC[C@@H]1[C@@H](O)N2C3C[C@H]1C1C(O)[C@]4(C[C@@H]12)c1ccccc1N(C)[C@@H]34 (stereo partly drawn)", 0),
    ("NC(=O)c1ccc(N)nc1", 0),
    ("N/C(=N/OC(=O)c1ccc(Cl)cc1)c1ccc(F)cc1F", 1),
    ("CC(=O)N[C@@H]1[C@@H](C(O)[C@H](O)CO)O[C@](O)(C(=O)O)C[C@@H]1O (stereo partly drawn)", 0),
    ("C#CCN(C)C(C)Cc1ccccc1 (stereo not drawn)", 0),
    ("COc1ccccc1C(C[N+](=O)[O-])c1c(N)n(C)c(=O)n(C)c1=O (stereo not drawn)", 1),
    ("NC(=NC(=O)c1ccc(Cl)cc1)c1cccs1", 0),
    ("Cc1ccc(C(C)C)cc2c(C)ccc1-2", 0),
    ("O=C(CCSc1cccs1)Nc1cccc(C(F)(F)F)c1", 0),
    ("CC(C)(O)C#Cc1ccc(/C=N\\Nc2c(Cl)cc(Cl)cc2Cl)cc1", 0),
    ("CCn1cc(C(=O)O)c(=O)c2cnc(N3CCNCC3)nc21", 0),
    ("COc1cc(C(=O)Oc2c(Cl)cc(Cl)cc2C=Nc2cccc([N+](=O)[O-])c2)cc(OC)c1OC", 1),
    ("CCOC(=O)c1ccc(N)cc1", 0),
    ("O=C1N=C(O)CN1/N=C\\c1ccc(-c2ccc([N+](=O)[O-])cc2)o1", 0),
    ("O=C(CO/N=C\\c1ccc(Cl)cc1Cl)NNC(=S)Nc1cc(Cl)ccc1Cl", 0),
    ("NC(=O)N/N=C\\c1ccc([N+](=O)[O-])o1", 0),
    ("CC1(C)C/C(=N/Nc2ccc(C(F)(F)F)cc2)c2cc(C(C)(C)C)c(O)c(O)c2O1", 1),
    ("Clc1ccc(-c2noc(CSC3=NCCN3)n2)cc1", 0),
]

----------
# EXPERIMENTAL PROTOCOL: chemical genetic growth profiling, strain panel (AID 1159580);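 further: tested at 20 µM; growth read once vehicle control cultures reached saturation at 30 °C; 1 = growth at the plate median or of vehicle wells; lower values mean less growth of the strain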
# PROTOCOL CONDITIONS: S. cerevisiae deletion strains, growth OD, locus YNL233W, strain BNI4, stronger effect = lower value
The whole screen tested about 5,500 compounds, of which about 2,000 (36%) were called active. Not shown: some 18% with an inconclusive outcome. The list shows a part of the results.

# COMPOUND, normalized growth
measured = [
    ("O=C(O)c1cc(=O)c(O)c2c(O)c(O)ccc2c1", 0.989),
    ("COP(=S)(OC)Oc1ccc(SC)c(C)c1", 0.998),
    ("Nc1c(Br)cc(Br)cc1CNC1CCC(O)CC1 (stereo not drawn)", 0.991),
]

Data provenance is PubChem BioAssay AID1159580.
